- Assay system: δ-opioid (Mus musculus, UniProt P32300)
- Construct: Each of the vas deferens isolated from the mice was hung in a Magnus tube; from tissue; host or cells: isolated vas deferens of male ddy strain mice
- Sequence (P32300 whole entry): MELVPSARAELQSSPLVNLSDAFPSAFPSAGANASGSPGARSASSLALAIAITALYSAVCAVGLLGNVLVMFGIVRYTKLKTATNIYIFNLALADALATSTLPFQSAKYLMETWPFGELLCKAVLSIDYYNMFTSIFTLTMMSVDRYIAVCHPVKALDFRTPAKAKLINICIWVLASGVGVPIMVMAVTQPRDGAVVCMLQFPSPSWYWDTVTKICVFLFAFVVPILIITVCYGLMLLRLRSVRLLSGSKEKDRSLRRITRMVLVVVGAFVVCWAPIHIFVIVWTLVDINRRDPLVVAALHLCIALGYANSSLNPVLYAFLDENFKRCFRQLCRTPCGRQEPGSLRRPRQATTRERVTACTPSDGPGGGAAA
- Protocol details: δ-opioid antagonism against DPDPE in mouse vas deferens (MVD)
- Format: biochemical, mouse (male ddy strain)
Output MET for Kb not less than 3 nM; output NOT MET otherwise.

Would you please look over these solved cases?
1) Oc1ccc2c3c1O[C@H]1c4c(c5cccc6c5n4CCS6)C[C@@]4(O)[C@@H](C2)N(CC2CC2)CC[C@]314 NOT MET
2) CO[C@@]12Cc3c(n4c5c(cccc35)CCC4)[C@@H]3Oc4c(O)ccc5c4[C@@]31CCN(CC1CC1)[C@@H]2C5 NOT MET
3) COc1ccc2c3c(n4c2c1CCC4)[C@@H]1Oc2c(O)ccc4c2[C@@]12CCN(CC1CC1)[C@H](C4)[C@]2(O)C3 MET
4) C=CCN1CC[C@]23c4c5ccc(O)c4O[C@H]2c2c(c4cccc6c4n2CCC6)C[C@@]3(O)[C@H]1C5 MET
5) Oc1ccc2c3c1O[C@H]1c4c(c5cccc6c5n4CCC6)C[C@@]4(O)[C@@H](C2)N(CC2CC2)CC[C@]314 NOT MET

Next:
[ask] Textbook exercise: given the entry Oc1ccc2c3c1O[C@H]1c4c(c5cccc6c5n4Cc4ccccc4-6)C[C@@]4(O)[C@@H](C2)N(CC2CC2)CC[C@]314 , state whether its Kb is greater than or equal to 3 nM.
[reply] NOT MET

###

- Assay system: δ-opioid (Mus musculus)
- Construct: Each of the vas deferens isolated from the mice was hung in a Magnus tube; from tissue; host or cells: isolated vas deferens of male ddy strain mice
- Protocol details: δ-opioid antagonism against DPDPE in mouse vas deferens (MVD)
- Type: biochemical, mouse (male ddy strain)
So basically: is Kb under 2 nM? Then TRUE. Not under? Then FALSE.

Would you please look over these solved cases?
1. Oc1ccc2c3c1O[C@H]1c4c(c5cc(Br)cc6c5n4CCC6)C[C@@]4(O)[C@@H](C2)N(CC2CC2)CC[C@]314 FALSE
2. Oc1ccc2c3c1O[C@H]1c4c(c5cc(F)cc6c5n4CCC6)C[C@@]4(O)[C@@H](C2)N(CC2CC2)CC[C@]314 TRUE
3. Cc1ccc2c3c1c1c(n3CCC2)[C@@H]2Oc3c(O)ccc4c3[C@@]23CCN(CC2CC2)[C@H](C4)[C@]3(O)C1 FALSE
4. COc1ccc2c3c1c1c(n3CCC2)[C@@H]2Oc3c(O)ccc4c3[C@@]23CCN(CC2CC2)[C@H](C4)[C@]3(O)C1 FALSE
5. Oc1ccc2c3c1O[C@H]1c4c(c5c(C(F)(F)F)ccc6c5n4CCC6)C[C@@]4(O)[C@@H](C2)N(CC2CC2)CC[C@]314 FALSE

[ask] Find out if reported Kb for Oc1ccc2c3c1O[C@H]1c4c(c5cccc6c5n4CCO6)C[C@@]4(O)[C@@H](C2)N(CC2CC2)CC[C@]314 is less than 2 nM
[reply] TRUE
